Biological target: human PTP1B (Homo sapiens)
Construct: human PTP1B (amino acid residues 1-321); made in house; host or cells: E. coli BL21(DE3)
Sequence (P18031 1-321): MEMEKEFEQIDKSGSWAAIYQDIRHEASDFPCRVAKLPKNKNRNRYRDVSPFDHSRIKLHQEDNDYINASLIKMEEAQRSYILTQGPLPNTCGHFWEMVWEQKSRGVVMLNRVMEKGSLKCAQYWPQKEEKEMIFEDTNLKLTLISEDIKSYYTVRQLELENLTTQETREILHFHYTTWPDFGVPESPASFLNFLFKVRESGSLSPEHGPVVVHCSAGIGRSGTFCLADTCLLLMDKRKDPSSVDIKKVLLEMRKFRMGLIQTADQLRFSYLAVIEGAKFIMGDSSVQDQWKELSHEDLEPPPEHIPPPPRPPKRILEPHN
Assay: PTP1B assay, pNPP hydrolysis, assayed exactly as for PTP1
Assay type: biochemical
Conditions: Conc 10 uM, Table 2, read-out: PTP1B Inhib PTP1B. % Inhib
Text: The equivalent construct of human PTP1B (amino acid residues 1-321) (cloned from a human placental library), without the GST tag and thrombin cleavage site, was inserted into a pMB replicon and transformed into E. coli BL21(DE3), a strain containing a chromosomal copy of the gene for T7 RNA polymerase under control of a lacUV5 promoter. […]
measured metric: inhibition at 10 µM (%)

[
  {
    "molecule": "CCCCCNC(=O)C(Cc1ccc(OCCOO)c(COO)c1)NC(=O)C(Cc1ccccc1)NC(=O)CCOC (stereo not drawn)",
    "target entity": "human PTP1B (Homo sapiens)",
    "inhibition at 10 µM [%]": 83
  },
  {
    "molecule": "CCCCCNC(=O)C(Cc1ccc(OCCOO)c(COO)c1)NC(=O)C(Cc1ccc(O)cc1)NC(=O)OC(C)(C)C (stereo not drawn)",
    "target entity": "human PTP1B (Homo sapiens)",
    "inhibition at 10 µM [%]": 81
  },
  {
    "molecule": "CC(C)(C)OC(=O)N[C@@H](Cc1ccccc1)C(=O)N[C@@H](Cc1ccc(OCC(=O)O)c(C(=O)O)c1)C(=O)NCCCCc1ccccc1 [drawing 221]",
    "target entity": "human PTP1B (Homo sapiens)",
    "inhibition at 10 µM [%]": 93
  },
  {
    "molecule": "CCCCCNC(=O)C(Cc1ccc(OCCOO)c(COO)c1)NC(=O)C(Cc1ccccc1)NC(=O)Cc1ccc(O)cc1 (stereo not drawn)",
    "target entity": "human PTP1B (Homo sapiens)",
    "inhibition at 10 µM [%]": 88
  },
  {
    "molecule": "CCCCCNC(=O)C(Cc1ccc(OC(COO)COO)cc1)NC(=O)N1CCN(C(=O)OC(C)(C)C)CC1 (stereo not drawn)",
    "target entity": "human PTP1B (Homo sapiens)",
    "inhibition at 10 µM [%]": 68
  },
  {
    "molecule": "CCCCCNC(=O)[C@H](Cc1ccc(OCC(=O)NO)c(C(=O)O)c1)NC(=O)[C@H](Cc1ccccc1)NC(=O)OC(C)(C)C",
    "target entity": "human PTP1B (Homo sapiens)",
    "inhibition at 10 µM [%]": 8
  },
  {
    "molecule": "CCCCCNC(=O)C(Cc1ccc(OC(COO)COO)cc1)NC(=O)C(Cc1ccccc1)NC(=O)CCC(=O)O (stereo not drawn)",
    "target entity": "human PTP1B (Homo sapiens)",
    "inhibition at 10 µM [%]": 87
  },
  {
    "molecule": "CCCCCNC(=O)C(Cc1ccc(OC(COO)C(=O)O)cc1)NC(=O)NC(Cc1ccc(OCc2ccccc2)cc1)C(=O)O (stereo not drawn)",
    "target entity": "human PTP1B (Homo sapiens)",
    "inhibition at 10 µM [%]": 63
  }
]

(A) CCCCCNC(=O)C(Cc1ccc(OC(COO)COO)cc1)NC(=O)C(CC[S+](C)[O-])NC(=O)OC(C)(C)C (stereo not drawn)
(B) CCCCCNC(=O)C(Cc1ccc(OCCOO)c(COO)c1)NC(=O)C(Cc1ccccc1)NC(=O)CCCc1ccccc1 (stereo not drawn)
(C) CC(C)(C)OC(=O)N[C@@H](Cc1ccccc1)C(=O)N[C@H](CO)Cc1ccc(OCC(=O)O)c(C(=O)O)c1 [drawing 222]
INPUT: List the 3 entries from lowest inhibition at 10 µM to highest inhibition at 10 µM value. State the ranking by listing the labels in the requested order.
OUTPUT: A, C, B

(I) CCCCCNC(=O)C(Cc1ccc(OC(COO)C(=O)O)cc1)C(=O)NCCC(=O)O (stereo not drawn)
(II) CCCCCNC(=O)[C@H](Cc1ccc(OCC(=O)O)c(C(=O)O)c1)NC(=O)C(Cc1ccccc1)NC(=O)Cn1nnnc1S (stereo partly drawn)
INPUT: Could you tell me which of these two has the smaller inhibition at 10 µM figure? First: I Second: II Kindly give the label for the entry you pick.
OUTPUT: I
(I: 15%, II: 91%)

(1) CCCCCNC(=O)C(Cc1ccc(OC(COO)COO)cc1)NC(=O)C(COCc1ccccc1)NC(=O)OC(C)(C)C (stereo not drawn)
(2) CCCCCNC(=O)C(Cc1ccc(OC(COO)COO)cc1)NC(=O)Nc1cccc(C(=O)O)c1 (stereo not drawn)
INPUT: Param pair: 1 , 2 . Output: the one whose inhibition at 10 µM is numerically greater. Kindly give the label for the entry you pick.
OUTPUT: 2
(2: 63%, 1: 19%)
